# experimental_system: T1, 4H855-bA
# T1 chain: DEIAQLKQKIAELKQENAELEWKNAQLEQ
# experiment_description: two-hybrid library CCNG1;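 note: natural log of median RNA to DNA barcode read ratio; higher means stronger binding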
Measured interaction score accompanies every entry in the list below.
Would you mind answering with just the numeric figure?

# annotated cases, reported interaction score shown
[[record]]
binder = "DKNAQLEQKIAELKQKIAELEWENAQLEQ [4H3427-bA]"
parameter = "interaction score"
result = -1.16

[[record]]
binder = "DEIAQLKQKIAELEQEIAELKWENAQLKQ [4H780-bA]"
parameter = "interaction score"
result = -0.574


Problem: Given the binder DKIAQLKQEIAELEQENAELKWEIAQLKQ [4H2586-bA] , what is its reported interaction score?
Solution: 1.54

Problem: // repeat for DKIAQLKQENAELEQEIAELKWKIAQLKQ [4H2702-bA] and report
Solution: -1.38

Problem: // repeat for DEIAQLKQENAELKQKNAELEWEIAQLKQ [4H754-bA] and report
Solution: -0.914

Origin of measurements: paper PMC10397247
